assayNotes: Solubility studies of compound I
Assay type: physicochemical
measurementParameters: Miglyol 812N, oil or lipid, Miglyol 812N; read-out: Solubility
Description: The solubility of compound I free base in water is only 2 μg/mL. […] Accordingly, the free base was utilized for the formulation development of compound I.
experimentalEndpoint: solubility (µg/mL)

INSERT INTO results (molecule, observed) VALUES
  ('C#CCOc1ccc(Nc2nc(Nc3ccc(C)c(S(N)(=O)=O)c3)ncc2F)cc1 [Compound I]', 2300);

----------
assayNotes: Solubility studies of compound I
Assay type: physicochemical
measurementParameters: 4% H2O-96% THF, organic solvent or mixture, 4% H2O-96% THF; read-out: Solubility
experimentalEndpoint: solubility (mg/mL)

INSERT INTO assay_data (compound, valueunits, observed) VALUES
  ('C#CCOc1ccc(Nc2nc(Nc3ccc(C)c(S(N)(=O)=O)c3)ncc2F)cc1 [Compound I]', 'mg/mL', 77);
